The reported numbers originate from ChEMBL document CHEMBL3124856.

Experiment: Lipophilicity, log D of the compound by shake flask method
Type: physicochemical
Conditions: octanol/water
REPORTED ENDPOINT: logD
Write the number on its own, no unit after it.

{"columns": ["SMILES STRUCTURE", "REPORTED ENDPOINT", "MEASURED NUMBER"],
 "data": [
  ["Cc1cn(-c2ccc3n(c2=O)CCN(CCOc2ccc(F)cc2C(F)(F)F)C3=O)cn1", "logD", 2.75]
]}

Next molecule, please.
## Task May I ask what logD has been recorded for Cc1cn(-c2ccc3n(c2=O)CCN(CCOc2ccc(Cl)cc2C(F)(F)F)C3=O)cn1 ?
## Result 3.32

----------
Test: Plasma concentration in rat at 5 mg/kg, po after 1 hr
Assay type: ADME, organism-based
Design: dose 5 mg/kg, route oral
REPORTED ENDPOINT: concentration at 1 h (ng/mL)
Just the number please, in ng/mL, no unit attached.

## Task concentration at 1 h for Cc1cn(-c2ccc3n(c2=O)CCN(CCOc2ccc(Cl)cc2C(F)(F)F)C3=O)cn1 ?
## Result 4140

## Task Endpoint output: concentration at 1 h of Cc1cn(-c2ccc3n(c2=O)CCN(CCOc2ccc(F)cc2C(F)(F)F)C3=O)cn1 . Value?
## Result 964

----------
Assay: Drug uptake in Hartley guinea pig brain at 30 mg/kg, po after 4 hrs post dosing
Format: ADME, organism-based, Cavia porcellus
Design: dose 30 mg/kg, route oral
Conditions: read-out: Drug uptake
REPORTED ENDPOINT: concentration at 4 h (µM)
API: value field is a number in µM; no unit string.

## Task # input compound: Cc1cn(-c2ccc3n(c2=O)CCN(CCOc2ccc(Cl)cc2C(F)(F)F)C3=O)cn1 ; wanted: its concentration at 4 h
## Result 9.16

----------
Test system: MDR1 (human)
Test: Efflux ratio of permeability in MDCK cells expressing human MDR1
Assay type: ADME, cell-based, Canis lupus familiaris
Conditions: dog
Measured efflux ratio, listed per entry for reference.
Answer with a bare number; do not write a unit.

Consider the worked cases shown below.
{"columns": ["SMILES STRUCTURE", "TARGET OF ASSAY", "efflux ratio"],
 "data": [
  ["Cc1cn(-c2ccc3c(=O)n(Cc4cccc(C(F)(F)F)c4)ccc3c2O)cn1", "MDR1 (human)", 1.1],
  ["Cc1cn(-c2ccc3n(c2=O)CCN(CCOc2ccccc2Cl)C3=O)cn1", "MDR1 (human)", 1.5],
  ["Cc1cn(-c2ccc3c(c2O)CCN(Cc2cccc(C(F)(F)F)c2)C3=O)cn1", "MDR1 (human)", 1.9]
]}

## Task What measured efflux ratio is associated with Cc1cn(-c2ccc3n(c2=O)CCN(CCOc2cccc4ccc(F)cc24)C3=O)cn1 on MDR1 (human)?
## Result 1.5

## Task Provide the documented efflux ratio with MDR1 (human) as the system for COc1cc2c(=O)n(CCc3cccc(Cl)c3)ccc2cc1-n1cnc(C)c1
## Result 1

## Task For MDR1 (human), provide efflux ratio of Cc1cn(-c2ccc3n(c2=O)CCN(Cc2cccc(C(F)(F)F)c2)C3=O)cn1 please.
## Result 1.5

## Task Provide value of efflux ratio for this record tested with MDR1 (human): Cc1cn(-c2ccc3n(c2=O)CCN(CC2(c4ccc(Cl)cc4)CC2)C3=O)cn1
## Result 1.7

## Task Enter reported efflux ratio observed with MDR1 (human) for Cc1cn(-c2ccc3n(c2=O)CCN(CCOc2ccc(Cl)cc2C(F)(F)F)C3=O)cn1
## Result 1.8

## Task Item: Cc1cn(-c2ccc3n(c2=O)CCN(CCOc2cccc(C(F)(F)F)c2)C3=O)cn1 Test system: MDR1 (human) Read-out: efflux ratio Value: ?
## Result 1.2

## Task Short answer please: efflux ratio, MDR1 (human), entry COc1c(-n2cnc(C)c2)ccc2c(=O)n(CCc3cccc(Cl)c3)ccc12
## Result 1.2
